Target: recombinant mouse moesin (mouse, UniProt P26041 1-577)
Sequence (P26041 whole entry): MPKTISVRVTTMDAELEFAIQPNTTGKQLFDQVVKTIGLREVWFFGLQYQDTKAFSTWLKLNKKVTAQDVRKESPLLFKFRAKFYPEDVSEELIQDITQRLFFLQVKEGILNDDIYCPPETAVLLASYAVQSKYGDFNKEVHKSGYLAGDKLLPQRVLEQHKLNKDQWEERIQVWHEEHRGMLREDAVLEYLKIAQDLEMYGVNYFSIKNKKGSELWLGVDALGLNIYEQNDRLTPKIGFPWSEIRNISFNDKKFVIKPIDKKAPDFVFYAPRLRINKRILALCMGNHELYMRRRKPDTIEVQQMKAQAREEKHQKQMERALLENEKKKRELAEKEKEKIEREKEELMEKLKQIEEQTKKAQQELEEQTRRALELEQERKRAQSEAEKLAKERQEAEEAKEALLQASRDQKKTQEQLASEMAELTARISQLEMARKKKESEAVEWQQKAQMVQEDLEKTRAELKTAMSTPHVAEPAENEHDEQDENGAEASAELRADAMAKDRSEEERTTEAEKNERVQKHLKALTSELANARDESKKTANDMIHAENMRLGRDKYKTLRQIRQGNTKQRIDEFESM
Assay: pull-down
endpoint.label: pKd
Units for pKd: none; it is -log10 of a concentration expressed in mol/L.

Request: Look up pKd: GST fusion protein with the cytoplasmic domain of mouse CD44 (domain or fragment) NSRRRCGQKKKLVINGGNGTVEDRKPSELNGEASKSQEMVHLVNKEPSETPDQCMTADETRNLQSVDMKIGV
Result: 8.03
